# Tested on: HCT-15 colon
# experimental_protocol: NCI tumour cell line growth inhibition, 48 h
Where a SMILES comes first, the peptide text is derived from it. [ ]: non-standard residue; d: D form. The star is where a group is joined. Phe(4-NO2) = N[CH](Cc1ccc([N+](=O)[O-])cc1)C(=O)O; Boc = CC(C)(C)OC(=O)*; OtBu = CC(C)(C)O*
Known TGI of a selection of compounds

The examples below pair each entry with its known result.
{"compound": "COc1ccc2c(-c3ccc(OCCN(C)C)cc3)c(Oc3ccccc3)c(=O)oc2c1", "TGI": "14.6 µM"}
{"compound": "CC1CC(C)CN(S(=O)(=O)c2cc(Cl)c(Oc3ccc([N+](=O)[O-])cc3Cl)c(Cl)c2)C1 (configuration not stated)", "TGI": "> 100 µM"}
{"compound": "O=c1cc(-c2ccccc2)[nH]c2ccc(N3CCCCC3)cc12", "TGI": "> 100 µM"}
{"compound": "O=S(=O)(O)c1ccc(N=Nc2ccc(N=Nc3c(O)ccc4ccccc34)c(S(=O)(=O)O)c2)cc1", "TGI": "> 100 µM"}
{"compound": "Cc1ncc(CO)c(C=NCCCCCCN=Cc2c(CO)cnc(C)c2[O-])c1[O-].[Cu+2]", "TGI": "> 100 µM"}
{"compound": "N#Cc1cccc(N2C(=O)c3ccc(C(=O)c4ccc5c(c4)C(=O)N(c4cccc(C#N)c4)C5=O)cc3C2=O)c1", "TGI": "> 100 µM"}
{"compound": "O=C(N=Nc1ccc(Br)cc1)NNc1ccc(Br)cc1", "TGI": "58.2 µM"}
{"compound": "CNC(=S)N/N=C(\\C)c1cc(OC)ccc1O", "TGI": "> 100 µM"}
{"compound": "CC(=O)NC(CCC(=O)OC(C)(C)C)C(=O)NC(CCC(=O)OC(C)(C)C)C(=O)NC(Cc1ccc([N+](=O)[O-])cc1)C(=O)NC(CCCCNC(=O)OC(C)(C)C)C(=O)NC(CCCCNC(=O)OC(C)(C)C)C(=O)NCC(=O)O (configuration not stated) (Ac-E(OtBu)E(OtBu)[Phe(4-NO2)]K(Boc)K(Boc)G-OH; configuration not given here)", "TGI": "> 100 µM"}
{"compound": "S=C(N/N=C/c1ccccc1)NC12CC3CC(CC(C3)C1)C2", "TGI": "> 100 µM"}

The value of TGI measured for the compound `O=C1CC[C@@]2(O)[C@H]3Cc4ccc(-c5cccc(O)c5)c5c4[C@@]2(CCN3CC2CC2)[C@H]1O5` turned out to be 71.3 µM

Lab book: TGI of CCCCCc1cc2cc3c(c(O)c2c(=O)[nH]1)C1(CC3)C(O)=c2c(=O)c3c(=O)cc(OC)c(=O)c=3c(=O)c2=C1O (configuration not stated) noted as 2.24 µM

###

# Tested on: MDA-MB-435
# experimental_protocol: NCI tumour cell line growth inhibition, 48 h
reported_endpoint: TGI

Example entries begin here.
{"compound": "Cc1ccc(S(=O)(=O)NC2=NCCN2C(=S)SN2CCn3c2nsc3=S)cc1", "reported_endpoint": "TGI", "result": "41.8 µM"}
{"compound": "O=C(O[C@H]1CN[C@H](C#Cc2cc3ncnc(Nc4ccc5c(cnn5Cc5ccccc5)c4)c3s2)C1)N1CCOCC1", "reported_endpoint": "TGI", "result": "> 25 µM"}
{"compound": "CCN(CC)CCNC(=O)c1cn2ncnc(Oc3ccc(NC(=O)Nc4ccc(Cl)c(C(F)(F)F)c4)cc3)c2c1C", "reported_endpoint": "TGI", "result": "3 µM"}
{"compound": "CCOC(=O)c1nc2cc(C(F)(F)F)ccc2nc1Nc1ccc(OC)c(OC)c1", "reported_endpoint": "TGI", "result": "> 100 µM"}

Summary line: CCCCCCCCCCCCCCCCCCNc1ccn(C2OC(CO)C(OP(=O)(O)OCC(COP(=O)(O)OCC3OC(n4cc(F)c(NCCCCCCCCCCCCCCCCCC)nc4=O)CC3O)OC(=O)CCCCCCCCCCCCCCC)C2O)c(=O)n1 (stereo not given) , MDA-MB-435, reported TGI = > 100 µM

###

// values below are reported TGI
# Tested on: OVCAR-5 ovarian
# experimental_protocol: NCI tumour cell line growth inhibition, 48 h

{"molecule": "C=C1C[C@@H](O)[C@@H](Br)C(C)(C)[C@@]12C=CC(O)(CBr)CC2 (stereo not given in full)", "TGI": "> 100 µM"}

The recorded TGI for entry Cc1cc(C)c(C2CC(O)C(CO)O2)cc1C (stereo not given) equals > 100 µM

`O=c1ssc2ncccc12` has a reported TGI of 55.1 µM

The molecule identified as `N#C/C(=C/c1ccco1)C(=O)c1ccccc1` registered its TGI at > 100 µM

In plain terms, `CCCN1C(=O)/C(=C/c2cccc(O)c2)SC1=Nc1ccccc1` has a documented TGI of 31 µM

// Nc1nc(=S)c2c(ncn2CC(O)CO)[nH]1 (stereo not given) : TGI value = > 100 µM

Lookup result for `O=C(Nc1ccccc1Cl)c1cc(S(=O)(=O)Nc2n[nH]c(=O)n2-c2ccccc2)c(S)cc1Cl` ; measured TGI: > 100 µM

For record `Nc1cc(N)c2nc(-c3ccccc3)c(Sc3ccc(Cl)c(Cl)c3)nc2c1` the listed TGI is 59.5 µM

Briefly, TGI measured for `CN(C)C=Nc1ccc2nonc2c1` : > 100 µM

Consider `Brc1ccc2[nH]cc([C@H]3CN[C@@H](c4c[nH]c5ccc(Br)cc45)CN3)c2c1` . Its measured TGI is 12 µM

Measured TGI of `CCc1c2c(nc3ccc(OC(=O)NCc4ccc(B5OC(C)(C)C(C)(C)O5)cc4)cc13)-c1cc3c(c(=O)n1C2)COC(=O)[C@]3(O)CC` : > 24.3 µM

Cc1cnc(Cl)nc1C(C#N)c1nc2ccccc2s1 (stereo not given) yielded TGI of 80.4 µM

Recorded TGI (molecule `N/C(=N/N=C/c1cc(Br)cc(Br)c1O)NO` ): > 100 µM

###

Below, each entry is listed with its recorded TGI.
# Test system: A549 NSCLC
# experimental_protocol: NCI tumour cell line growth inhibition, 48 h

Given item `O=C(/C=C/c1c(O)ccc2ccccc12)c1ccccc1Cl` , the value recorded as its TGI is > 100 µM

###

# Test system: HOP-92 NSCLC
# experimental_protocol: NCI tumour cell line growth inhibition, 48 h
Below, each entry is listed with its recorded TGI.

Reference set, count: 2
{"molecule": "O=C(c1ccc(Cl)c(Cl)c1)N(Cc1cccnc1)C(=S)N(Cc1cccnc1)C(=O)c1ccc(Cl)c(Cl)c1", "reported_endpoint": "TGI", "result": "> 100 µM"}
{"molecule": "CSCCC(NC(=O)CNC(=O)C(CC(=O)O)NC(=O)C(NC(=O)C(NC(=O)C(NC(=O)CNC(=O)C(CCC(N)=O)NC(=O)C(CCSC)NC(=O)C(CC(=O)O)NC(=O)C(C)NC(=O)C(C)NC(=O)C(NC(=O)C(CO)NC(=O)C(N)CC(C)C)C(C)O)C(C)C)C(C)C)C(C)O)C(=O)NC(C)C(=O)NC(CO)C(=O)NCC(=O)NC(CC(C)C)C(=O)NC(CC(=O)O)C(=O)NC(CCCCN)C(=O)NC(CC(=O)O)C(=O)NC(Cc1ccc(O)cc1)C(=O)NC(CC(C)C)C(=O)NC(CCCCN)C(=O)N1CCCC1C(=O)NC(CC(=O)O)C(=O)NC(CC(=O)O)C(=O)O (stereo not drawn)", "reported_endpoint": "TGI", "result": "> 82.5 µM"}

Now consider the entry below.
Record `C/C=C(\C)C(=O)O[C@H]1C=CC(=O)O[C@H]1CC[C@H](O)[C@H](C)O` , field TGI: 16.1 µM

###

Entries and their TGI
# Test system: OVCAR-8 ovarian
# experimental_protocol: NCI tumour cell line growth inhibition, 48 h

{"compound": "Cc1ccc(C(N)=Nc2ccccc2)cc1", "target_or_test_system": "OVCAR-8 ovarian", "result": "> 100 µM"}
{"compound": "N#CC(NCCc1ccccc1)c1ccccc1 (stereo unspecified)", "target_or_test_system": "OVCAR-8 ovarian", "result": "> 100 µM"}
{"compound": "N#Cc1c(N)nc(NCc2ccccc2)c(C#N)c1-c1ccc(Cl)cc1", "target_or_test_system": "OVCAR-8 ovarian", "result": "57.2 µM"}
{"compound": "O=C1OC(c2cccc(C(F)(F)F)c2)c2ccc3ccccc3c21 (stereo unspecified)", "target_or_test_system": "OVCAR-8 ovarian", "result": "> 100 µM"}
{"compound": "CN1C(=O)CC2(C)c3cc(O)ccc3N(C)C12 (stereo unspecified)", "target_or_test_system": "OVCAR-8 ovarian", "result": "61.4 µM"}

Continue with the next compound.
The measured TGI that `O=C(CCc1n[nH]c(=S)o1)Nc1cc(Cl)c(Cl)cc1Cl` showed for OVCAR-8 ovarian is > 100 µM
